Hello, the source for this data is ChEMBL document CHEMBL4270548, in case you need it.

Assay info: Tmax in ICR mouse at 10 mg/kg, po administered as single dose by LC/MS/MS analysis
Format: ADME, organism-based
Condition set: in vivo
Observable: Tmax
Answer by giving the amount and then stating its unit.

Look up and report measured Tmax for this entry: CCN(CC(=O)O)CC(=O)N1CCC[C@H]1c1cc(C(=O)Nc2ncc(F)s2)c(C)s1
15 min

###

Assay info: Primary phase half life in ICR mouse at 2 mg/kg, iv administered as single dose by LC/MS/MS analysis
Type: ADME, organism-based
Condition set: in vivo, read-out: alphat1/2 (converted)
Observable: half-life (min)
Express the result in min but write the number alone.

Look up and report measured half-life for this entry: CCN(CC(=O)O)CC(=O)N1CCC[C@H]1c1cc(C(=O)Nc2ncc(F)s2)c(C)s1
28.2

###

Assay info: Ratio of AUC (0 to 1.5 hrs) in C57BL/6J mouse liver to plasma at 30 mg/kg, po administered as single dose by LC/MS/MS analysis
Type: ADME, organism-based
Condition set: liver and plasma, read-out: Ratio AUC
Could you please report measured Kp for the items listed next?
Note: the reply should be a number with no unit written.

Look up and report measured Kp for this entry: CS(=O)(=O)c1ccc([C@@H](C[C@H]2CCC(=O)C2)C(=O)Nc2cnccn2)cc1Cl
6.8

Look up and report measured Kp for this entry: CCN(CC(=O)O)CC(=O)N1CCC[C@H]1c1cc(C(=O)Nc2ncc(F)s2)c(C)s1
1.6

###

Could you please report measured Kp for the items listed next?
Assay info: Ratio of AUC (0 to 1.5 hrs) in C57BL/6J mouse pancreas to plasma at 30 mg/kg, po administered as single dose by LC/MS/MS analysis
Assay type: ADME, organism-based
Condition set: pancreas and plasma, read-out: Ratio AUC

Look up and report measured Kp for this entry: CS(=O)(=O)c1ccc([C@@H](C[C@H]2CCC(=O)C2)C(=O)Nc2cnccn2)cc1Cl [PIRAGLIATIN]
2.2

Look up and report measured Kp for this entry: CCN(CC(=O)O)CC(=O)N1CCC[C@H]1c1cc(C(=O)Nc2ncc(F)s2)c(C)s1
0.081

###

Could you please report measured inhibition at 1 h, 30 µM for the items listed next?
Subject of test: hERG (KCNH2) (Homo sapiens, UniProt Q12809)
Sequence (Q12809 whole entry): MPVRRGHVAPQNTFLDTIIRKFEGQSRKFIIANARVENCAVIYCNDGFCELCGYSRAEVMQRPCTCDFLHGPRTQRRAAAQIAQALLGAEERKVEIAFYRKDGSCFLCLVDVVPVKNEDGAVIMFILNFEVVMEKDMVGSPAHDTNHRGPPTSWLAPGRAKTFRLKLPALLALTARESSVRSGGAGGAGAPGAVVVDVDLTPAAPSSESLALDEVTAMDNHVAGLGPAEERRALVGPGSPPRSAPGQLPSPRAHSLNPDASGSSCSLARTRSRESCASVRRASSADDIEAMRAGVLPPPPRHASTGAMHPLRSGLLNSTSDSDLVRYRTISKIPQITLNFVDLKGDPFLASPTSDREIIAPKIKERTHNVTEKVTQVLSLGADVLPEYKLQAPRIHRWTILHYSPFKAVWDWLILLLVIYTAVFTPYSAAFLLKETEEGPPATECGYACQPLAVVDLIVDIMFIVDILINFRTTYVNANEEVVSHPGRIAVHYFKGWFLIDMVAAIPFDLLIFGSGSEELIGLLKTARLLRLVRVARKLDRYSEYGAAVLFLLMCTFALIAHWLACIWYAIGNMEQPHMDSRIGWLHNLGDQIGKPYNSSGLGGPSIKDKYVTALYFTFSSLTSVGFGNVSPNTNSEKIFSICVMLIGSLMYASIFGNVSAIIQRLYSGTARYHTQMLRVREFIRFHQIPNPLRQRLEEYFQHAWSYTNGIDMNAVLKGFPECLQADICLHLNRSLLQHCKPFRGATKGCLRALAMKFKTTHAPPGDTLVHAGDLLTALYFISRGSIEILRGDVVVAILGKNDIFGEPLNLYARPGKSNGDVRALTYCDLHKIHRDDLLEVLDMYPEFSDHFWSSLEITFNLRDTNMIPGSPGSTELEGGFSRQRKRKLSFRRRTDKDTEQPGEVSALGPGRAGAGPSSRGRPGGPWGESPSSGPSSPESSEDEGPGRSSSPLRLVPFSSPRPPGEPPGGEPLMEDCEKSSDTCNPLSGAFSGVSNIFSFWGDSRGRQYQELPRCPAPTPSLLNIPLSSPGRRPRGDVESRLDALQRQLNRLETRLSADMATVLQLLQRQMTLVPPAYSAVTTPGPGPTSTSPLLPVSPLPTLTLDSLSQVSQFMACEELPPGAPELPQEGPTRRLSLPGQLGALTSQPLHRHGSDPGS
Assay info: Inhibition of [3H]-dofetilide binding to human ERG expressed in HEK293 cell membranes at 30 uM after 1 hr by scintillation proximity assay relative to control
Condition set: HEK293 cell membranes that express hERG, probe [3H]-dofetilide
Answer by giving the amount and then stating its unit.

Look up and report measured inhibition at 1 h, 30 µM for this entry: CC(=O)NCC(=O)N1CCCC1c1cc(C(=O)Nc2ncc(Cl)s2)c(C)s1 (stereo not drawn)
3%

Look up and report measured inhibition at 1 h, 30 µM for this entry: Cc1sc(C2CCCN2C(=O)CN(C)CCC(=O)O)cc1C(=O)Nc1ncc(F)s1.Cl (stereo not drawn)
17%

Look up and report measured inhibition at 1 h, 30 µM for this entry: Cc1sc(C2CCCN2C(=O)CN(C)CC(=O)O)cc1C(=O)Nc1ncc(Cl)s1.Cl (stereo not drawn)
11%

###

Subject of test: Hexokinase-4 (Homo sapiens) (UniProt P35557)
Sequence (whole entry): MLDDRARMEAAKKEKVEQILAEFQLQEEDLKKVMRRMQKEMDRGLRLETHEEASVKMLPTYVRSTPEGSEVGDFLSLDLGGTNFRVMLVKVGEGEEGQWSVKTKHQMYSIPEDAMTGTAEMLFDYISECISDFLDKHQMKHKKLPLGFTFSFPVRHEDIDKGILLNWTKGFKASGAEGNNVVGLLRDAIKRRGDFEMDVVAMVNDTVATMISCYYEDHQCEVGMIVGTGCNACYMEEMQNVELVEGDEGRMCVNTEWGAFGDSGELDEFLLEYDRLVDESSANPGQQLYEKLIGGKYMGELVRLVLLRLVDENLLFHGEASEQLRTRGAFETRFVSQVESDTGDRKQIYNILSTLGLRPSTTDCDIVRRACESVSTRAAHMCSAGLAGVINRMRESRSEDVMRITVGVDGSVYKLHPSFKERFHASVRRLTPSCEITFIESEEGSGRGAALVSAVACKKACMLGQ
Assay info: Activation of human glucokinase assessed as conversion of D-glucose to D-glucose-6-phosphate at 10 uM preincubated for 10 mins […] measured for 5 mins at 30 secs time interval by G6PDH/NADP coupled assay relative to RO0281675
Threshold-based label: fold change (FC) under 0.4 gives fulfilled, fold change (FC) not under 0.4 gives not fulfilled.

Quick check: does Cc1sc(C2CCCN2C(=O)CNCC(=O)O)cc1C(=O)Nc1ncc(Cl)s1 (stereo unspecified) have fold change (FC) under 0.4?
not fulfilled

Quick check: does Cc1sc(C2CCCN2C(=O)CN)cc1C(=O)Nc1nccs1 (stereo unspecified) have fold change (FC) under 0.4?
fulfilled

Quick check: does Cc1sc([C@H]2CCCN2C(=O)CN(C)C)cc1C(=O)Nc1ncc(Cl)s1.Cl have fold change (FC) under 0.4?
fulfilled

Quick check: does Cc1sc(-c2ccccc2C(=O)NCCN(C)C)cc1C(=O)Nc1nc2c(s1)CCC2 have fold change (FC) under 0.4?
not fulfilled

Quick check: does Cc1sc(N2CCCCC2=O)cc1C(=O)Nc1nc2c(s1)CCC2 have fold change (FC) under 0.4?
fulfilled

Quick check: does Cc1sc(C2CCCN2C(=O)CN(C)CC(=O)O)cc1C(=O)Nc1ncc(Cl)s1.Cl (stereo unspecified) have fold change (FC) under 0.4?
not fulfilled

Quick check: does Cc1sc(C2CCCN2C(=O)CNS(C)(=O)=O)cc1C(=O)Nc1ncc(Cl)s1 (stereo unspecified) have fold change (FC) under 0.4?
not fulfilled

Quick check: does Cc1sc(-c2ccccc2C(N)=O)cc1C(=O)Nc1nc2c(s1)CCC2 have fold change (FC) under 0.4?
not fulfilled

Quick check: does CC(=O)N1CCCCC1c1cc(C(=O)Nc2nc3c(s2)CCC3)c(C)s1 (stereo unspecified) have fold change (FC) under 0.4?
fulfilled

Quick check: does Cc1sc([C@@H]2CCCN2C(=O)[C@H](C)N(C)CC(=O)O)cc1C(=O)Nc1ncc(F)s1 have fold change (FC) under 0.4?
not fulfilled

Quick check: does CC(=O)N(C)CC(=O)N1CCCC1c1cc(C(=O)Nc2ncc(Cl)s2)c(C)s1 (stereo unspecified) have fold change (FC) under 0.4?
fulfilled

Quick check: does Cc1sc([C@@H]2CCCN2C(=O)CN(C)C)cc1C(=O)Nc1ncc(Cl)s1.Cl have fold change (FC) under 0.4?
not fulfilled

Quick check: does CC(=O)N1CCCC1c1cc(C(=O)Nc2nc3c(s2)CCC3)c(C)s1 (stereo unspecified) have fold change (FC) under 0.4?
fulfilled

Quick check: does Cc1sc([C@@H]2CCCN2C(=O)CN(C)CCC(=O)O)cc1C(=O)Nc1ncc(F)s1 have fold change (FC) under 0.4?
not fulfilled

Quick check: does Cc1sc(C2CCCN2C(=O)CN(C)CCCCC(=O)O)cc1C(=O)Nc1ncc(F)s1 (stereo unspecified) have fold change (FC) under 0.4?
not fulfilled

Quick check: does Cc1sc(C2CCCN2C(=O)CCN)cc1C(=O)Nc1nc2c(s1)CCC2 (stereo unspecified) have fold change (FC) under 0.4?
fulfilled

Quick check: does Cc1sc(C2CCCN2C(=O)CN(C)CCC(=O)O)cc1C(=O)Nc1ncc(F)s1.Cl (stereo unspecified) have fold change (FC) under 0.4?
not fulfilled

Quick check: does Cc1sc(C2CCCN2C(=O)CN(C)CC(=O)O)cc1C(=O)Nc1ncc(F)s1 (stereo unspecified) have fold change (FC) under 0.4?
not fulfilled

Quick check: does Cc1sc(C2CCCN2C(=O)CN(C)CCCC(=O)O)cc1C(=O)Nc1ncc(F)s1 (stereo unspecified) have fold change (FC) under 0.4?
not fulfilled

Quick check: does Cc1sc(C2CCCN2C(=O)CN(C)C)cc1C(=O)Nc1nccs1 (stereo unspecified) have fold change (FC) under 0.4?
fulfilled

Quick check: does Cc1sc(C2CCCN2C(=O)CN(C)S(C)(=O)=O)cc1C(=O)Nc1ncc(Cl)s1 (stereo unspecified) have fold change (FC) under 0.4?
fulfilled
